# Subject of test: CHIKV p62-E1 (Chikungunya virus)
# Measurement notes: SPR (Biacore T100), IgG captured by anti-human IgG, p62-E1 injected
Measured quantity: Kd (nM)
Kindly provide the numeric value in nM only, without the unit symbol.

Which Kd is reported for this binder? 3A2 (antibody, V domains shown) VH: QVQLVQSGGGVVQPGRSLRLSCAASGFTFSNYVMEWVRQAPGKGLEWVAVISYDGSNKYYADSVKGRFTISRDNSKNTLYLQMNSLRAEDTAVYYCARSEWESSYGSGNYYTDYFYYYAMDVWGPGTLVTVSS VL: QAVVTQSPLSLPVTPGEPASISCRSNQSLLRGIRYNYLDWYLQKPGQSPQLLIYLGSNRASGVPDRFSGSGSATDFTLKISRVEAEDVGVYYCMQALQTPTTFGQGTRLEIK
4.78

Which Kd is reported for this binder? 2C2 (antibody, V domains shown) VH: QVQLVQSGGGLVQPGRSLTLSCAASGFTFDVYAMHWVRQAPGKGLEWVAGISWNSGSVGYADSMKGRFTISRDNAKNSLYLQINSLRAEDTALYYCAKAFWFGELSGYGMDVWGQGTLVTVSS VL: QAVVTQPPSASGFPGQSVTISCTGTSSDVGSYNYVSWYQQHPGKAPKLIIYAVTRRPSGVPERFSGSKSGNTASLTVSGLQAEDEADYYCTSYAGNNKDVFGTGTKVTVL
4.59

Which Kd is reported for this binder? 3B4 (antibody, V domains shown) VH: QVQLEESGPTLVKPTQTLTLTCSFSGFSLTTTGVTVGWIRQPPGKALEWLALIYWDDDKRYSPSLKSRLTITKDTSKNQVVLTMTNMDPVDTATYYCAHSTGYYDSSGYRGALDAFAVWGQGTLVTVSS VL: QIVVTQFPDSPAVSLGERATINCKSSQSVLYHSNNKNYLAWYQQKPGQPPNLLIYWASARQSGVPDRFSGSGSGTDFTLTISSLQAEDVAVYYCQQYYSTPYTFGQGTKLEIK
0.54

Which Kd is reported for this binder? 8G18 (antibody, V domains shown) VH: QVQLVQSGAQVKKPGSSVKVSCKPSGGTFNNNGISWVRQAPGQGLEWMGGIVPNFGTPTYGQDFQGRVTITADESTSTVFLELTRLRSDDTAVYFCARGRTAVTPMQLGLQFYFDFWGRGTLVTVSS VL: QTVVTQEPSLTVSPGGTVTLTCSANSGAVTSDYYPNWFQQKPGQAPRALIYSASNKFSWTPARFSGSLLGGKAALTLSGAQPEDEAEYYCLVYSGDGVVFGGGTKLTV
0.48

Which Kd is reported for this binder? 1L1 (antibody, V domains shown) VH: QVQLVQSGPTLVKPTQTLTLTCTFSGFSLSISGVGVGWIRQPPGKALEWLALIYWDDDKRYSPSLKSRLTITKDTSENQVVLTMTNMDPVDTATYYCAHSMTKGGAIYGQAYFEYWGQGTLV VL: PSPALEPDSDVGGYNYVSWYQQHPGKAPKLIIYDVTDRPSGVSNRFSASKSANTASLTISGLQAEDEADYYCSSYTSSST
3.79

All values here come from patent US20180079802A1.
